The origin of these recorded values is the supplement of paper PMC11196671.

Test: PET hydrolysis product formed (TPA+MHET+BHET, UV-Vis) per mg enzyme (mmol/mg enzyme); higher = more PET depolymerisation activity; extreme values may be limits of the assay
Details: PET substrate: cryPow; 60 °C; pH 5.5; 24 h
Assign PET hydrolysis product formed to each entry below.
Numbers only.

Recorded results for 2 sequences are shown here.
- Sequence code: "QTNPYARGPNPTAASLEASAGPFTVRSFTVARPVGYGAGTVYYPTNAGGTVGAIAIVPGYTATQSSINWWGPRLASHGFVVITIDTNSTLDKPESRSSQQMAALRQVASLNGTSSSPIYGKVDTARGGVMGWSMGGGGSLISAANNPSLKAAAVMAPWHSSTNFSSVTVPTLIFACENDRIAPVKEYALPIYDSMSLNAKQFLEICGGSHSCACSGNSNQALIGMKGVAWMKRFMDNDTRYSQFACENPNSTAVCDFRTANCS [HotPETase]"
  PET hydrolysis product formed: 0.118
- Sequence code: "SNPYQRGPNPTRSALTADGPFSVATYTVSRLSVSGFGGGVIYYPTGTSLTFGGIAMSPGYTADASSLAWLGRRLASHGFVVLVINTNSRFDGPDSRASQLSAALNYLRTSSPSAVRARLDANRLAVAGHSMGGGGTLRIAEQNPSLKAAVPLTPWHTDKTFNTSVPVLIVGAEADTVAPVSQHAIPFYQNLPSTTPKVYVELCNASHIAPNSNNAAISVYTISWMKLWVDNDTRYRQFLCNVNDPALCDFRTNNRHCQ [LCC-ICCG]"
  PET hydrolysis product formed: 0.0652

Next sequence, please.
Incoming: Give a short answer stating reported PET hydrolysis product formed for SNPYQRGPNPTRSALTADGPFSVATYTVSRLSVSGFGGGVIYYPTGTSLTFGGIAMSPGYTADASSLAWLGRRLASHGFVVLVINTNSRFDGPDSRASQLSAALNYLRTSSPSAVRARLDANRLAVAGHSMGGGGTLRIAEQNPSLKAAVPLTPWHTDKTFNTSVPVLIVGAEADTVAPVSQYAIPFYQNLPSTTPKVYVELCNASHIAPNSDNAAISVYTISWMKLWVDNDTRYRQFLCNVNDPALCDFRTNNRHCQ [LCC-A2] .
Outgoing: 0.0766
